Procedure details: Drug uptake in Sprague-Dawley rat brain at 2 mg/kg administered via nasal cavity after 10 mins
Assay type: ADME, organism-based
Design: dose 2 mg/kg
Experimental context: inhaled or intranasal, read-out: Drug uptake
Measured endpoint: concentration at 10 min (nM)
Numeric only. Scale: nM

Entry `NC(=O)[C@H](Cc1ccccc1)NC(=O)[C@H](Cc1c[nH]c2ccccc12)NC(=O)[C@@H]1CCCN1C(=O)[C@H](Cc1ccc(O)cc1)NC(=O)CCC(=O)N[C@@H]1O[C@H](CO)[C@@H](O[C@@H]2O[C@H](CO)[C@H](O)[C@H](O)[C@H]2O)[C@H](O)[C@H]1O` has what concentration at 10 min? 4

----------
Procedure details: Drug uptake in Sprague-Dawley rat blood at 2 mg/kg administered via nasal cavity after 10 mins
Type: ADME, organism-based
Parameters: dose 2 mg/kg
Experimental context: inhaled or intranasal, read-out: Drug uptake
Measured endpoint: concentration at 10 min (nM)
Numeric only. Scale: nM

Entry `NC(=O)[C@H](Cc1ccccc1)NC(=O)[C@H](Cc1c[nH]c2ccccc12)NC(=O)[C@@H]1CCCN1C(=O)[C@H](Cc1ccc(O)cc1)NC(=O)CCC(=O)N[C@@H]1O[C@H](CO)[C@@H](O[C@@H]2O[C@H](CO)[C@H](O)[C@H](O)[C@H]2O)[C@H](O)[C@H]1O` has what concentration at 10 min? 1.6

----------
Procedure details: Half life in human plasma by RP-HPLC analysis
Assay type: ADME, cell-free
For each entry below, report its half-life value.
Numeric only. Scale: min

Entry NC(=O)[C@H](Cc1ccccc1)NC(=O)[C@H](Cc1c[nH]c2ccccc12)NC(=O)[C@@H]1CCCN1C(=O)[C@@H](N)Cc1ccc(O)cc1 [ENDOMORPHIN-1] has what half-life? 5.9

How about this molecule: `NC(=O)[C@H](Cc1ccccc1)NC(=O)[C@H](Cc1c[nH]c2ccccc12)NC(=O)[C@@H]1CCCN1C(=O)[C@H](Cc1ccc(O)cc1)NC(=O)CCC(=O)N[C@@H]1O[C@H](CO)[C@@H](O[C@@H]2O[C@H](CO)[C@H](O)[C@H](O)[C@H]2O)[C@H](O)[C@H]1O` 12.9

Recorded values, source ChEMBL document CHEMBL3124754.
